target: MAP1LC3A, Q9H492; assay: median log2 fold change of GCK-ALFA target abundance (FLAG IP / Myc IP barcode read proportion) (log2 ratio); each designed protein is fused to an ALFA-tag nanobody in HEK293 cells to bring the named protein to FLAG-tagged glucokinase (GCK); Myc marks an untargeted standard; higher = target protein stabilised (more abundant); conditions: target protein: 3xFLAG-MCP-GCK-ALFA reporter; HEK293 landing pad (RPLP)
The full ranking holds about 2,300 sequences; the median of “median log2 fold change of GCK-ALFA target abundance (FLAG IP / Myc IP barcode read proportion)” is about 0.095, and the lowest 2% start at about -0.47. What follows is part of a selection rich in the lowest values, with near analogues and random picks from the rest.
Quantity: median log2 fold change

* LC3A_62_2043 (protein) MYLATVDVDILAKDEEAAEKIYEEIKKKLEELKKKDPNIKYEVKLDKENKYVSVTVTYEAETLEEAEKKAQEIEDELDEILEKNEDLIKAALISREITKL | 0.16

Tell me median log2 fold change reported for LC3A_free_8_2515 (protein) MNQEFANKATEILEELEEKLVELLKEKGASELDILEAELLIGSAIAEVISLSDKSPEEILKAIRESLEELVEELEEHREEVKELAEEALKKIEEKKKELE
0.159

Tell me median log2 fold change reported for LC3A_17_539 (protein) KEELKEELKKLIEEAEKLVEEVKPYIPEEAEKAKKRLKEAKKLLEEGKLKEAAELLAETADEMADAVSETEWEDPLKRTLLELEFDSLAIEAESILLKLE
-0.51

Tell me median log2 fold change reported for LC3A_free_39_2217 (protein) SMEEIEKLIKEIAEEGGIDYEYVKKKIEEIKEVAGLSDEQILELVKAILEAVKAGADAKEILERILKLAKELKEEGKSPEEIAKELLEEIEDFRNLIPLD
-0.012
